Measured soluble fraction (log2) by item
- test-protocol: soluble fraction after stress (log2 fold change); higher = more stays soluble; pooled small domains, quantitative proteomics;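 also: 20 min heating vs room temperature control held 20 min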
- settings: stress: 75 degC
Could you respond with only the numeric value?

Illustrative cases are given below, each with its answer.
                             input_sequence  endpoint_value
0  HMEIIMIVITKPSITDERIAEIVAVIERNGGVQAHVSKGTDRTVIGIIGKAEPTLAEHLRQMKGVENVIKI           -1.33
1  HMEPMNMYSSIKKVIGVVSGKGGVGKSLVTASLARMMRAKGYHVGIMDADITGPSIPKMYGLHEMA           0.395
2  HMLNSISIKTNKKIDFLEKNEHLVNFVYEKETMEHIYNLSYENKKDLQELQNKLSDIEGIIKINTDL           0.651
3  HMVLFDLSEREKEVLKLLADGNSYKMIASRLEITYFTVNAHLKKIYEKLQVHSASEAVSVALRNSL           -1.19
4  HMSVNEKVRLFRELNQWSQEEMAERMNMSVAGYAKIERGETNISLHKLKQIASVLQIDLLDLVS            -2.1
5  HMDWVAYGAELRRRRLLAGWTVAELSRRINLSGMTIHQIEKGRGRLRPSELTLAKLAAALGMPTP           -3.58
6  HMESKPLTPSEIKKLRMDANMTQAGLAEVLGMTVKAVEAWESGRNIPSGAADKILRVMQKHPSVIGMMQS          0.0281

Turning now to a further record.
// soluble fraction (log2) lookup, sequence = `HMSVSVEEDADGRVWVYYQDQKMDITDLFDENGVYGFNLEKGDRTVYVEVTKNADGTYSFTQTD` , result: 0.427

Recorded values, source the domain aggregation screens of Martell et al. (2025).
